The compounds listed here are annotated with their IC50.
- METHOD SUMMARY: in vitro
- EXPERIMENTAL CONTEXT: African green monkey

# COMPOUND, IC50
measured = [
    ("CCCCCC(=O)Nc1ccc2[nH]c3c(C4=C[C@@]5(O)CC/C=C\\CCCCN6CC[C@@H]4[C@]4(C[C@@H]7/C=C\\CCCCN7[C@H]45)C6)nccc3c2c1 [Compound 11, 6-n-Hexamidomanzamine A]", "> 470 nM"),
    ("CCCCC(=O)Nc1ccc2[nH]c3c(C4=C[C@@]5(O)CC/C=C\\CCCCN6CC[C@@H]4[C@]4(C[C@@H]7/C=C\\CCCCN7[C@H]45)C6)nccc3c2c1 [Compound 9, 6-n-Pentamidomanzamine A]", "> 470 nM"),
    ("CC(C)(C)CC(=O)Nc1cccc2c1[nH]c1c(C3=C[C@@]4(O)CC/C=C\\CCCCN5CC[C@@H]3[C@]3(C[C@@H]6/C=C\\CCCCN6[C@H]34)C5)nccc12 [Compound 23, 8-(t-Butyl)-acetamidomanzamine A]", "> 470 nM"),
    ("O=C(Nc1cccc2c1[nH]c1c(C3=C[C@@]4(O)CC/C=C\\CCCCN5CC[C@@H]3[C@]3(C[C@@H]6/C=C\\CCCCN6[C@H]34)C5)nccc12)C1CCCCC1 [Compound 24, 8-Cyclohexamidomanzamine A]", "> 470 nM"),
    ("CCCCC(=O)Nc1cccc2c1[nH]c1c(C3=C[C@@]4(O)CC/C=C\\CCCCN5CC[C@@H]3[C@]3(C[C@@H]6/C=C\\CCCCN6[C@H]34)C5)nccc12 [Compound 19, 8-n-Pentamidomanzamine A]", "> 470 nM"),
]
